This section presents compounds with their documented inhibition at 10 µM values.
- ASSAYED TARGET: Rat brain protein farnesyltransferase (Rattus norvegicus, UniProt Q02293+Q04631)
- Construct: The enzyme was purified according to Reiss, Y., et al., Cell, 62: 81-88 (1990), utilizing steps one through three; from tissue; host or cells: rat brain
- ASSAY REMARKS: In vitro inhibition of protein farnesyltransferase (biotin-lamin substrate, scintillation proximity assay)
- Type: biochemical
- EXPERIMENTAL CONTEXT: 10 μM; compared to uninhibited control
- Description: In vitro inhibition of protein farnesyltransferase may be measured by the following procedure. […] Rat brain protein farnesyltransferase activity was measured using the biotin-lamin substrate (which is known to undergo farnesylation in a manner analogous to Ras protein) and radioactive farnesyl diphosphate provided by Amersham Life Science in their commercial scintillation proximity assay kit for the determination of farnesyltransferase. […]
Number in %, nothing else.

{"COMPOUND": "O=C(O)[C@H]1[C@H](C(=O)N(Cc2ccc(Oc3ccccc3)cc2)CC2CC2)[C@H](C(=O)O)[C@H]1C(=O)N(Cc1ccc(Oc2ccccc2)cc1)CC1CC1", "inhibition at 10 µM, %": 74}
{"COMPOUND": "CCCN(C(=O)C1C(C(=O)O)C(C(=O)N(CCC)c2ccc(Oc3ccccc3)cc2)C1C(=O)O)c1ccc(Oc2ccccc2)cc1 (stereo not drawn)", "inhibition at 10 µM, %": 88}
{"COMPOUND": "CCCN(Cc1ccc(Cc2ccccc2)cc1)C(=O)[C@H]1[C@H](C(=O)O)[C@H](C(=O)N(CCC)Cc2ccc(Cc3ccccc3)cc2)[C@H]1C(=O)O", "inhibition at 10 µM, %": 69}
{"COMPOUND": "CC(C)N(Cc1ccc(Oc2ccccc2)cc1)C(=O)[C@H]1[C@H](C(=O)O)[C@H](C(=O)N(Cc2ccc(Oc3ccccc3)cc2)C(C)C)[C@H]1C(=O)O", "inhibition at 10 µM, %": 31}
{"COMPOUND": "CCCN(Cc1ccc(Oc2ccccc2)s1)C(=O)C1C(C(=O)O)C(C(=O)N(CCC)Cc2ccc(Oc3ccccc3)s2)C1C(=O)O (stereo not drawn)", "inhibition at 10 µM, %": 69}

# context switch: different compound, same inhibition at 10 µM
Result for CCCN(Cc1ccc(Oc2ccccc2)c(C)c1)C(=O)C1C(C(=O)O)C(C(=O)N(CCC)Cc2ccc(Oc3ccccc3)c(C)c2)C1C(=O)O (stereo not drawn) , tested on Rat brain protein farnesyltransferase (Rattus norvegicus, UniProt Q02293+Q04631), inhibition at 10 µM: 54

----------
- ASSAYED TARGET: Rat liver microsomal squalene synthase (Rattus norvegicus, UniProt Q02769)
- Construct: Rat liver microsomes, the source of enzyme, were prepared; from tissue; host or cells: rat liver microsomes
- Sequence (Q02769 whole entry): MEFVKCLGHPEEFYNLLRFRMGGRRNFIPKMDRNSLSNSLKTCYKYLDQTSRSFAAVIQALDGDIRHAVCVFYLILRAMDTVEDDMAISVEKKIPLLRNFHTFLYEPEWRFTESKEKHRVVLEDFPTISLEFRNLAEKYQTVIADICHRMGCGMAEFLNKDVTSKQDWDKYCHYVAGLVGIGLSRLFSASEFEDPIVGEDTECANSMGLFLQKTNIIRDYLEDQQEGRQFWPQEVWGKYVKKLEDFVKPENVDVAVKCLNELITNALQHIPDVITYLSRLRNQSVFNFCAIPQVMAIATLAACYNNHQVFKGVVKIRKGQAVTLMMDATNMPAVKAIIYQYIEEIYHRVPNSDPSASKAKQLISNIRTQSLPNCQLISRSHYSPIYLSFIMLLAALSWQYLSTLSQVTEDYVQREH
- ASSAY REMARKS: In vitro inhibition of squalene synthase (rat liver microsomes, 3H-farnesyl diphosphate)
- Assay type: biochemical
- EXPERIMENTAL CONTEXT: 1 μM; compared to controls with no test compound
Label scheme for inhibition at 1 µM: lower than 30% is 0.0, 30% and above is 1.0.

Below are worked cases with known answers.
{"COMPOUND": "O=C(O)[C@H]1[C@H](C(=O)N(Cc2ccc(Oc3ccccc3)cc2)CC2CCCC2)[C@H](C(=O)O)[C@H]1C(=O)N(Cc1ccc(Oc2ccccc2)cc1)CC1CCCC1", "DISCRETE LABEL": 1.0}
{"COMPOUND": "O=C(O)[C@H]1[C@H](C(=O)N(Cc2ccc(Oc3ccccc3)cc2)Cc2cccs2)[C@H](C(=O)O)[C@H]1C(=O)N(Cc1ccc(Oc2ccccc2)cc1)Cc1cccs1", "DISCRETE LABEL": 0.0}
{"COMPOUND": "CCCN(Cc1ccc(Oc2ccco2)cc1)C(=O)C1C(C(=O)O)C(C(=O)N(CCC)Cc2ccc(Oc3ccco3)cc2)C1C(=O)O (stereo not drawn)", "DISCRETE LABEL": 0.0}
{"COMPOUND": "CCCN(Cc1cccc(Oc2ccccc2)c1)C(=O)C1C(C(=O)O)C(C(=O)N(CCC)Cc2cccc(Oc3ccccc3)c2)C1C(=O)O (stereo not drawn)", "DISCRETE LABEL": 0.0}
{"COMPOUND": "CCCN(Cc1ccc(Oc2ccccc2)c(C)c1)C(=O)C1C(C(=O)O)C(C(=O)N(CCC)Cc2ccc(Oc3ccccc3)c(C)c2)C1C(=O)O (stereo not drawn)", "DISCRETE LABEL": 1.0}

Query string: Determine whether measured inhibition at 1 µM meets or exceeds 30% for CCCN(Cc1ccc(Oc2ccccc2)cc1)C(=O)[C@H]1[C@H](C(=O)O)[C@H](C(=O)N(Cc2ccccc2)Cc2ccc(Oc3ccccc3)cc2)[C@H]1C(=O)O (relative stereo)
Result string: 1.0

Query string: Determine whether measured inhibition at 1 µM meets or exceeds 30% for O=C(O)[C@H]1[C@H](C(=O)N(Cc2ccc(Oc3ccccc3)cc2)C2CCC2)[C@H](C(=O)O)[C@H]1C(=O)N(Cc1ccc(Oc2ccccc2)cc1)C1CCC1
Result string: 0.0

Query string: Determine whether measured inhibition at 1 µM meets or exceeds 30% for CSCCN(Cc1ccc(Oc2ccccc2)cc1)C(=O)C1C(C(=O)O)C(C(=O)N(CCSC)Cc2ccc(Oc3ccccc3)cc2)C1C(=O)O (stereo not drawn)
Result string: 0.0

Query string: Determine whether measured inhibition at 1 µM meets or exceeds 30% for COc1cccc(CCN(Cc2ccc(Oc3ccccc3)cc2)C(=O)[C@H]2[C@H](C(=O)O)[C@H](C(=O)N(CCc3cccc(OC)c3)Cc3ccc(Oc4ccccc4)cc3)[C@H]2C(=O)O)c1
Result string: 0.0

Query string: Determine whether measured inhibition at 1 µM meets or exceeds 30% for O=C(O)[C@H]1[C@H](C(=O)N(Cc2ccc(Oc3ccccc3)cc2)CC2CCC2)[C@H](C(=O)O)[C@H]1C(=O)N(Cc1ccc(Oc2ccccc2)cc1)CC1CCC1
Result string: 1.0

Query string: Determine whether measured inhibition at 1 µM meets or exceeds 30% for CN(Cc1ccc(Oc2ccccc2)cc1)C(=O)[C@H]1[C@H](C(=O)O)[C@H](C(=O)N(C)Cc2ccc(Oc3ccccc3)cc2)[C@H]1C(=O)O
Result string: 1.0
